# TARGET_UNDER_TEST: Neu5Ac(a2-3)Gal(b1-3)GlcNAc(b1-2)Man(a1-3)[GlcNAc(b1-4)][Neu5Ac(a2-3)Gal(b1-3)GlcNAc(b1-2)Man(a1-6)]Man(b1-4)GlcNAc(b1-4)GlcNAc
# TEST_SUMMARY: glycan array binding signal (z-score within array); higher = stronger binding
# REPORTED_CONDITIONS: glycan notation: IUPAC condensed, linker removed
The full list was thinned out, with the strongest signals kept by preference.
QUANTITY_NAME: glycan array binding signal (z-score)
Numbers only.

Input line: Could you tell me which glycan array binding signal (z-score) is on file for CM2 (Cordyceps militaris) (protein) MEIAEQNVGKSCAIVNLIPPKEGSNIWTAKQVTIARNLPPNRGTGRHQIDWSFGPVKVTGYVDTTNWEIGVTVSIMGIDLGTVYGNLRDGVVLNVDLFLAKGQVRFYLKNGNEVWVHLSVEIRFDGKFEGDYKIITV ?
Output line: 1.74
